The values you see were collected from patent EP0025288A1.

# Tested on: Bord bronchiseptica BO8
# assay procedure: MIC, veterinary bacteria
# Format: cell-based
# conditions used: veterinary bacteria (Table 2), read-out: MIC
parameter measured: MIC

Q) GET /values?readout=MIC&item= CC(=O)COC(=O)C=C(C)CC1OCC(CC2OC2C(C)C(C)O)C(O)C1O (stereo not drawn) [Example 1, Acetvlmethvl Monate A]
A) > 80 µg/mL

Q) GET /values?readout=MIC&item= CC(=CC(=O)OC1CCCC(=O)CCC1)CC1OCC(CC2OC2C(C)C(C)O)C(O)C1O (stereo not drawn) [Example 10, Cyclooctan-5-onyl monate A]
A) > 80 µg/mL

Q) GET /values?readout=MIC&item= CC(=O)CCCOC(=O)C=C(C)CC1OCC(CC2OC2C(C)C(C)O)C(O)C1O (stereo not drawn) [Example 2, 3-Acetvlpropvl Monate A]
A) 40 µg/mL

Q) GET /values?readout=MIC&item= CC(=O)Nc1ccc(C(=O)CCCOC(=O)C=C(C)CC2OCC(CC3OC3C(C)C(C)O)C(O)C2O)cc1 (stereo not drawn)
A) > 80 µg/mL

Q) GET /values?readout=MIC&item= CC(=CC(=O)OCCCC(=O)c1cccs1)CC1OCC(CC2OC2C(C)C(C)O)C(O)C1O (stereo not drawn) [Example 4, 4(1-Thienyl-2-ylbutan-1-onyl) monate A]
A) 40 µg/mL

Q) GET /values?readout=MIC&item= CC(=CC(=O)OCCCC(=O)c1ccccc1)CC1OCC(CC2OC2C(C)C(C)O)C(O)C1O (stereo not drawn) [Example 5, 4-Phenylbutan-4-onyl monate A]
A) 40 µg/mL

---

# assay procedure: Serum binding by ultrafiltration
# Assay type: in vitro ADME, pig
# conditions used: pig, serum, compounds at 8 mcg/ml, microbiological assay (B. subtilis ATCC 6633), read-out: % bound to pig serum (converted)
Response field label: string, one of Satisfied (fraction unbound strictly below 0.1) or Not satisfied.

Q) Regarding CC(=O)CCCOC(=O)C=C(C)CC1OCC(CC2OC2C(C)C(C)O)C(O)C1O (centres unmarked) [Example 2, 3-Acetvlpropvl Monate A] , kindly confirm whether its fraction unbound is beneath 0.1.
A) Not satisfied

Q) Regarding CC(=CC(=O)OCCCC(=O)c1ccccc1)CC1OCC(CC2OC2C(C)C(C)O)C(O)C1O (centres unmarked) [Example 5, 4-Phenylbutan-4-onyl monate A] , kindly confirm whether its fraction unbound is beneath 0.1.
A) Satisfied

Q) Regarding CC(=CC(=O)OCCCC(=O)c1cccs1)CC1OCC(CC2OC2C(C)C(C)O)C(O)C1O (centres unmarked) [Example 4, 4(1-Thienyl-2-ylbutan-1-onyl) monate A] , kindly confirm whether its fraction unbound is beneath 0.1.
A) Satisfied

Q) Regarding CC(=O)Nc1ccc(C(=O)CCCOC(=O)C=C(C)CC2OCC(CC3OC3C(C)C(C)O)C(O)C2O)cc1 (centres unmarked) [Example 9] , kindly confirm whether its fraction unbound is beneath 0.1.
A) Not satisfied

Q) Regarding CC(=O)COC(=O)C=C(C)CC1OCC(CC2OC2C(C)C(C)O)C(O)C1O (centres unmarked) [Example 1, Acetvlmethvl Monate A] , kindly confirm whether its fraction unbound is beneath 0.1.
A) Not satisfied

---

Kindly supply the reported concentration at 40 min values for the records listed here.
# assay procedure: Mean serum concentration in neonatal piglets after intramuscular or oral administration
# Assay type: in vivo
# conditions used: pig, po, 50 mg/kg, 40'
Don't forget the unit after the number, please.

Q) GET /values?readout=concentration at 40 min&item= CC(=CC(=O)OCCCC(=O)c1cccs1)CC1OCC(CC2OC2C(C)C(C)O)C(O)C1O (centres unmarked) [Example 4, 4(1-Thienyl-2-ylbutan-1-onyl) monate A]
A) 6500 ng/mL

Q) GET /values?readout=concentration at 40 min&item= CC(=CC(=O)OCCCC(=O)c1ccccc1)CC1OCC(CC2OC2C(C)C(C)O)C(O)C1O (centres unmarked) [Example 5, 4-Phenylbutan-4-onyl monate A]
A) 1200 ng/mL

---

Kindly supply the reported concentration at 24 h values for the records listed here.
# assay procedure: Mean serum concentration in neonatal piglets after intramuscular or oral administration
# Type: in vivo
# conditions used: pig, im, 50 mg/kg, 24h

Q) GET /values?readout=concentration at 24 h&item= CC(=CC(=O)OCCCC(=O)c1cccs1)CC1OCC(CC2OC2C(C)C(C)O)C(O)C1O (centres unmarked) [Example 4, 4(1-Thienyl-2-ylbutan-1-onyl) monate A]
A) < 120 ng/mL

Q) GET /values?readout=concentration at 24 h&item= CC(=CC(=O)OCCCC(=O)c1ccccc1)CC1OCC(CC2OC2C(C)C(C)O)C(O)C1O (centres unmarked) [Example 5, 4-Phenylbutan-4-onyl monate A]
A) < 200 ng/mL

---

# assay procedure: Mean serum concentration in neonatal piglets after intramuscular or oral administration
# Format: in vivo
# conditions used: pig, im, 50 mg/kg, 8h
parameter measured: concentration at 8 h

Q) GET /values?readout=concentration at 8 h&item= CC(=CC(=O)OCCCC(=O)c1ccccc1)CC1OCC(CC2OC2C(C)C(C)O)C(O)C1O (centres unmarked) [Example 5, 4-Phenylbutan-4-onyl monate A]
A) 180 ng/mL

Q) GET /values?readout=concentration at 8 h&item= CC(=CC(=O)OCCCC(=O)c1cccs1)CC1OCC(CC2OC2C(C)C(C)O)C(O)C1O (centres unmarked) [Example 4, 4(1-Thienyl-2-ylbutan-1-onyl) monate A]
A) 710 ng/mL

---

# assay procedure: Mean serum concentration in neonatal piglets after intramuscular or oral administration
# Type: in vivo
# conditions used: pig, im, 50 mg/kg, 6h
parameter measured: concentration at 6 h (ng/mL)
Field: numeric (ng/mL). Do not append units.

Q) GET /values?readout=concentration at 6 h&item= CC(=CC(=O)OCCCC(=O)c1cccs1)CC1OCC(CC2OC2C(C)C(C)O)C(O)C1O (centres unmarked) [Example 4, 4(1-Thienyl-2-ylbutan-1-onyl) monate A]
A) 830

Q) GET /values?readout=concentration at 6 h&item= CC(=CC(=O)OCCCC(=O)c1ccccc1)CC1OCC(CC2OC2C(C)C(C)O)C(O)C1O (centres unmarked) [Example 5, 4-Phenylbutan-4-onyl monate A]
A) 310

---

# Test system: Past multocida PA1
# assay procedure: MIC, veterinary bacteria
# Type: cell-based
# conditions used: veterinary bacteria (Table 2), read-out: MIC
parameter measured: MIC (µg/mL)
Field: numeric (µg/mL). Do not append units.

Q) GET /values?readout=MIC&item= CC(=CC(=O)OCCCC(=O)c1ccccc1)CC1OCC(CC2OC2C(C)C(C)O)C(O)C1O (stereo not drawn) [Example 5, 4-Phenylbutan-4-onyl monate A]
A) 1.25

Q) GET /values?readout=MIC&item= CC(=CC(=O)OCCCC(=O)c1cccs1)CC1OCC(CC2OC2C(C)C(C)O)C(O)C1O (stereo not drawn) [Example 4, 4(1-Thienyl-2-ylbutan-1-onyl) monate A]
A) 0.312

Q) GET /values?readout=MIC&item= CC(=O)COC(=O)C=C(C)CC1OCC(CC2OC2C(C)C(C)O)C(O)C1O (stereo not drawn) [Example 1, Acetvlmethvl Monate A]
A) 0.625

Q) GET /values?readout=MIC&item= CC(=CC(=O)OC1CCCC(=O)CCC1)CC1OCC(CC2OC2C(C)C(C)O)C(O)C1O (stereo not drawn) [Example 10, Cyclooctan-5-onyl monate A]
A) 40

Q) GET /values?readout=MIC&item= CC(=O)CCCOC(=O)C=C(C)CC1OCC(CC2OC2C(C)C(C)O)C(O)C1O (stereo not drawn) [Example 2, 3-Acetvlpropvl Monate A]
A) 0.312

Q) GET /values?readout=MIC&item= CC(=O)Nc1ccc(C(=O)CCCOC(=O)C=C(C)CC2OCC(CC3OC3C(C)C(C)O)C(O)C2O)cc1 (stereo not drawn) [Example 9]
A) 2.5

---

# assay procedure: Mean serum concentration in neonatal piglets after intramuscular or oral administration
# Type: in vivo
# conditions used: pig, im, 50 mg/kg, 10'
parameter measured: concentration at 10 min (µg/mL)
Field: numeric (µg/mL). Do not append units.

Q) GET /values?readout=concentration at 10 min&item= CC(=CC(=O)OCCCC(=O)c1cccs1)CC1OCC(CC2OC2C(C)C(C)O)C(O)C1O (centres unmarked) [Example 4, 4(1-Thienyl-2-ylbutan-1-onyl) monate A]
A) 9

Q) GET /values?readout=concentration at 10 min&item= CC(=CC(=O)OCCCC(=O)c1ccccc1)CC1OCC(CC2OC2C(C)C(C)O)C(O)C1O (centres unmarked) [Example 5, 4-Phenylbutan-4-onyl monate A]
A) 1.9

---

Kindly supply the reported concentration at 40 min values for the records listed here.
# assay procedure: Mean serum concentration in neonatal piglets after intramuscular or oral administration
# Type: in vivo
# conditions used: pig, im, 50 mg/kg, 40'
# Experimental: e) Mean serum concentration in neonatal piglets of Examples 4 and 5 after intramuscular or oral administration at 50 mg/kg Blood levels were assessed in neonatal piglets (2 to 4 animals per group and man bodyweights about 2 kg). The dose was 50 mg/kg (dose solution = 25 mg/ml in 25% ethanol). Doses were given by intramuscular injection and orally by stomach tube. Piglets were bled at intervals up to 8 and at 24 hours, and serum assayed microbiologically (B. subtilis ATCC 6633).
Field: numeric (ng/mL). Do not append units.

Q) GET /values?readout=concentration at 40 min&item= CC(=CC(=O)OCCCC(=O)c1ccccc1)CC1OCC(CC2OC2C(C)C(C)O)C(O)C1O (centres unmarked) [Example 5, 4-Phenylbutan-4-onyl monate A]
A) 1500

Q) GET /values?readout=concentration at 40 min&item= CC(=CC(=O)OCCCC(=O)c1cccs1)CC1OCC(CC2OC2C(C)C(C)O)C(O)C1O (centres unmarked) [Example 4, 4(1-Thienyl-2-ylbutan-1-onyl) monate A]
A) 10000
